procedureDetails: in vitro
settings: rat, gh3-tre-luc cells, AC50 (uM) modified / 1000, Tox21_110001=Tox21_300043; viability, 1 nM T3 present, 24 h
propertyLabel: CC50 at 24 h

Query: Name the recorded CC50 at 24 h for OCCCl .
Result: > 90 µM

----------
procedureDetails: in vitro
settings: rat, gh3-tre-luc cells, AC50 (uM) modified / 1000, Tox21_110001=Tox21_200065; viability, 1 nM T3 present, 24 h
propertyLabel: CC50 at 24 h

Query: Name the recorded CC50 at 24 h for C[N+](C)(C)CCCl [Chlormequat chloride] .
Result: > 90 µM

----------
procedureDetails: in vitro
settings: rat, gh3-tre-luc cells, AC50 (uM) modified / 1000
Counter-ions that a name gives are not always drawn.
propertyLabel: CC50 at 24 h

1. COC(C)CCO (centres unmarked) [3-Methoxybutan-1-ol]    > 90 µM
2. CC[C@H]1OC(=O)[C@H](C)[C@@H](O[C@H]2C[C@@](C)(OC)[C@@H](O)[C@H](C)O2)[C@H](C)[C@@H](O[C@@H]2O[C@H](C)C[C@H](N(C)C)[C@H]2O)[C@](C)(OC)C[C@@H](C)C(=O)[C@H](C)[C@@H](O)[C@]1(C)O [Clarithromycin]    > 90 µM
3. O=C1CCCCC1 [Cyclohexanone]    > 100 µM
4. CC(=O)Oc1ccccc1C(=O)O [Aspirin]    > 90 µM
5. CCCN1CCC[C@@H]2Cc3nc(N)ncc3C[C@H]21 [Quinelorane]    > 50 µM

Query: Name the recorded CC50 at 24 h for CC(=O)Nc1ccc2c(c1)Cc1cc(NC(C)=O)ccc1-2 [2,7-Acetylaminofluorene] .
Result: > 90 µM

Query: Name the recorded CC50 at 24 h for O=Cc1ccc(F)c(Br)c1 [3-Bromo-4-fluorobenzaldehyde] .
Result: > 90 µM

Query: Name the recorded CC50 at 24 h for COc1cccc2c1C(=O)c1c(O)c3c(c(O)c1C2=O)C[C@@](O)(C(C)=O)C[C@@H]3O[C@H]1C[C@H](N)[C@H](O)[C@H](C)O1 [Daunomycin hydrochloride] .
Result: 0.244 µM

----------
procedureDetails: in vitro
settings: rat, gh3-tre-luc cells, AC50 (uM) modified / 1000, Tox21_110001=Tox21_303381; viability, 1 nM T3 present, 24 h
propertyLabel: CC50 at 24 h

Query: Name the recorded CC50 at 24 h for CCC(=O)c1ccc(Cl)cc1 .
Result: > 90 µM

----------
procedureDetails: in vitro
settings: rat, gh3-tre-luc cells, AC50 (uM) modified / 1000, Tox21_110001=Tox21_300148; viability, 1 nM T3 present, 24 h
propertyLabel: CC50 at 24 h (µM)
Just the number in µM, nothing appended.

Query: Name the recorded CC50 at 24 h for CCOP(=S)(OCC)Oc1nc(Cl)c(Cl)cc1Cl .
Result: 81.6

----------
procedureDetails: in vitro
settings: rat, gh3-tre-luc cells, AC50 (uM) modified / 1000, Tox21_110001=Tox21_202297; viability, 1 nM T3 present, 24 h
propertyLabel: CC50 at 24 h

Query: Name the recorded CC50 at 24 h for O=C(O)C(Br)Br [Dibromoacetic acid] .
Result: > 90 µM

----------
procedureDetails: in vitro
settings: rat, gh3-tre-luc cells, AC50 (uM) modified / 1000, Tox21_110001=Tox21_301582; viability, 1 nM T3 present, 24 h
propertyLabel: CC50 at 24 h (µM)
Just the number in µM, nothing appended.

Query: Name the recorded CC50 at 24 h for CCOC(=O)CCN(SN(C)C(=O)Oc1cccc2c1OC(C)(C)C2)C(C)C [Benfuracarb] .
Result: 64

----------
procedureDetails: in vitro
settings: rat, gh3-tre-luc cells, AC50 (uM) modified / 1000, Tox21_110001=Tox21_200234; viability, 1 nM T3 present, 24 h
propertyLabel: CC50 at 24 h

Query: Name the recorded CC50 at 24 h for O=C=NC1CCCCC1 .
Result: > 90 µM

----------
procedureDetails: in vitro
settings: rat, gh3-tre-luc cells, AC50 (uM) modified / 1000, Tox21_110001=Tox21_200987; viability, 1 nM T3 present, 24 h
propertyLabel: CC50 at 24 h

Query: Name the recorded CC50 at 24 h for C[C@]12CCC(=O)C[C@@H]1CC[C@@H]1[C@@H]2CC[C@]2(C)[C@@H](O)CC[C@@H]12 [5alpha-Dihydrotestosterone] .
Result: > 90 µM

----------
procedureDetails: in vitro
settings: rat, gh3-tre-luc cells, AC50 (uM) modified / 1000, Tox21_110001=Tox21_200003; viability, 1 nM T3 present, 24 h
propertyLabel: CC50 at 24 h

Query: Name the recorded CC50 at 24 h for Cl/C=C\Cl [(Z)-1,2-Dichloroethylene] .
Result: > 90 µM

----------
procedureDetails: in vitro
settings: rat, gh3-tre-luc cells, AC50 (uM) modified / 1000, Tox21_110001=Tox21_300698; viability, 1 nM T3 present, 24 h
propertyLabel: CC50 at 24 h

Query: Name the recorded CC50 at 24 h for CCOC(=O)COc1cc(-c2nn(C)c(OC(F)F)c2Cl)c(F)cc1Cl [Pyraflufen-ethyl] .
Result: > 90 µM

----------
procedureDetails: in vitro
settings: rat, gh3-tre-luc cells, AC50 (uM) modified / 1000, Tox21_110001=Tox21_301333; viability, 1 nM T3 present, 24 h
propertyLabel: CC50 at 24 h

Query: Name the recorded CC50 at 24 h for CCCN(CCCl)c1c([N+](=O)[O-])cc(C(F)(F)F)cc1[N+](=O)[O-] [Fluchloralin] .
Result: > 90 µM

----------
procedureDetails: in vitro
settings: rat, gh3-tre-luc cells, AC50 (uM) modified / 1000, Tox21_110001=Tox21_301527; viability, 1 nM T3 present, 24 h
propertyLabel: CC50 at 24 h

Query: Name the recorded CC50 at 24 h for C=C[Si]1(C)O[Si](C)(C=C)O[Si](C)(C=C)O[Si](C)(C=C)O1 (stereo not shown) .
Result: > 90 µM

----------
Test system: GH3-TRE-Luc cell line
settings: read-out: AC50 (uM) modified / 1000; Tox21_110001=Tox21_302884; viability, 1 nM T3 present, 24 h
propertyLabel: CC50 (µM)
Just the number in µM, nothing appended.

Query: Name the recorded CC50 for O=c1cc(-c2ccc(O)cc2)oc2cc(O)cc(O)c12 .
Result: 77.9

----------
Tested on: GH3-TRE-Luc cell line
settings: read-out: AC50 (uM) modified / 1000; Tox21_110001=Tox21_300090; viability, 1 nM T3 present, 24 h
propertyLabel: CC50 (µM)
Just the number in µM, nothing appended.

Query: Name the recorded CC50 for CCC(C)(C)c1ccc(O)c(C(C)(C)CC)c1 .
Result: 12.2

----------
procedureDetails: in vitro
settings: rat, gh3-tre-luc cells, AC50 (uM) modified / 1000
Recorded CC50 at 24 h, one value per entry.
Just the number in µM, nothing appended.

1) CC(C)Oc1cc(-n2nc(C(C)(C)C)oc2=O)c(Cl)cc1Cl [Oxadiazon]    50.6

Please look at the following compound next.
Query: Name the recorded CC50 at 24 h for CC[C@@H](C(=O)[C@@H](C)[C@@H](O)[C@H](C)[C@@H]1O[C@@H]([C@@H](CC)C(=O)O)CC[C@@H]1C)[C@H]1O[C@]2(C=C[C@@H](O)[C@]3(CC[C@@](C)([C@H]4CC[C@](O)(CC)[C@H](C)O4)O3)O2)[C@H](C)C[C@@H]1C [Salinomycin sodium] .
Result: 0.823

----------
procedureDetails: in vitro
settings: rat, gh3-tre-luc cells, AC50 (uM) modified / 1000, Tox21_110001=Tox21_201641; viability, 1 nM T3 present, 24 h
propertyLabel: CC50 at 24 h
State the value with its unit after it.

Query: Name the recorded CC50 at 24 h for COP(=O)(OC)OC(Br)C(Cl)(Cl)Br (stereo not shown) [Naled] .
Result: 48.7 µM

----------
Recorded CC50 at 24 h, one value per entry.
procedureDetails: in vitro
settings: rat, gh3-tre-luc cells, AC50 (uM) modified / 1000
Just the number in µM, nothing appended.

1) Cc1ccc(S(=O)(=O)Oc2ccc(N=Nc3ccc(-c4ccc(N=Nc5c(O)ccc6cc(S(=O)(=O)O)cc(S(=O)(=O)O)c56)c(C)c4)cc3C)cc2)cc1    32.3

Query: Name the recorded CC50 at 24 h for CC(C)(C)c1cc(O)c(C(C)(C)C)cc1O .
Result: 37.2

----------
procedureDetails: in vitro
settings: rat, gh3-tre-luc cells, AC50 (uM) modified / 1000, Tox21_110001=Tox21_202349; viability, 1 nM T3 present, 24 h
propertyLabel: CC50 at 24 h (µM)
Just the number in µM, nothing appended.

Query: Name the recorded CC50 at 24 h for CCCCCc1cc(O)cc(O)c1 .
Result: 78.4
